# target-or-test-system: T1, human VPAC2 receptor (human, UniProt P41587 24-438)
# T1 sequence (looked up): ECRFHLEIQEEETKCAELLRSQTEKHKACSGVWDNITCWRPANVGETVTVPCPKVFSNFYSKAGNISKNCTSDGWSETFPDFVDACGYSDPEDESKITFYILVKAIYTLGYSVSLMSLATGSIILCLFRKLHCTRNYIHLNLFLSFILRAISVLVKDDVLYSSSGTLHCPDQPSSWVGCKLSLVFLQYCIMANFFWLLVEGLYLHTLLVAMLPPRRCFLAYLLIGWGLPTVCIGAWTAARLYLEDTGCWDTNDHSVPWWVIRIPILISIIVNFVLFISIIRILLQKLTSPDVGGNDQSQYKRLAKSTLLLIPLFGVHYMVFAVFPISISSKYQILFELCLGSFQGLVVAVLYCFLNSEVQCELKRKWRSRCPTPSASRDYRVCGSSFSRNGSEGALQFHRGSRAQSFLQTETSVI
# protocol-details: cell-based or functional assay
Where no end group is shown, it is not given here. [ ]: non-standard residue; d: D form. The star is where a group is joined. Hexanoyl = CCCCCC(=O)*; Aib = CC(C)(N)C(=O)O
assay-endpoint: EC50 cAMP, Alpha Screen (nM)
Form entry: value (nM) — number only.

Observe how each entry below is paired with its result.
>>> assay_result("Hexanoyl-HSDAVFTDNYTRLR[Aib]QVAA[Aib]KYLQSIKQGGPSSGAPPPS (ends and bridges not checked) [P297]")
0.36
>>> assay_result("Hexanoyl-HSDAVFTDNYTRL[Aib]KQVAALKYLQSIKNKRYGGPSSGAPPPS (ends and bridges not checked) [P259]")
1.08
>>> assay_result("HSDAVFTDNYTXLRXQVAAXKYLQSIXNXXYGGPSSGAPPPS (N-terminal hexanoyl (C6); hR at 12, 27, 29, 30; Aib at 15, 20) [P338]")
0.46
>>> assay_result("Hexanoyl-HSDAVFTDNYTRL[Aib]KQVAA[Aib]KYLQSIKQGGPSSGAPPPS (ends and bridges not checked) [P296]")
6.69

**Query** Entry HSDAVFTDNYTRLRKQVAAKKYLQSIRNKRYGGPSSGAPPPS [P23] has what EC50 cAMP, Alpha Screen?
**Result** 2.3
